Where do the numbers come from? From patent US20220064286A1.

Experimental system: cynomolgus monkey (cyno) TIGIT protein (cynomolgus monkey, UniProt A0A7N9I9V4 89-209)
Sequence (A0A7N9I9V4 entry or part of it): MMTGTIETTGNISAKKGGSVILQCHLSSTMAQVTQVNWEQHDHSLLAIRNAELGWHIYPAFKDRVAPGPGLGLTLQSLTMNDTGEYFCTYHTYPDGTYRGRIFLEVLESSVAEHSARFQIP
Protocol summary: SPR, captured mAb
Parameter measured: kon
Could you write the number and then its unit?

Look over these answered cases.
| Binder | kon |
| --- | --- |
| h15C8.L1H4 (antibody, V domains shown, VH: I48M against h15C8.L1H1; FR/HVR pieces) VH: EVQLVQSGAEVKKPGASVKVSCKASGYTFTEHSIYWLRQAPGQRLEIMGRIDPKNGRTYFVDKFKNRATLTTDTSASTAYMELSSLRSEDTAVYFCARIDGFYFDFWGQGTLVTVSS VL: DIQLTQSPSFLSASVGDRVTITCKGSQNVNKYLVWYQQKPGKAPKLLIYSTDNLQSGIPSRFSGSGSGTEYTLTISSLQPEDFATYFCYQYNNGFTFGQGTKVEIK | 532000 M⁻¹ s⁻¹ |
| h10A5.L1H1 (antibody, V domains shown, Humanized; FR/HVR pieces in order; also called h1.10A5.L1H1) VH: EVTLKESGPALVKPTQTLTLTCTFSGFSLTTYGMGVSWIRQPPGKALEWLASIWWNGNTYYNPSLRSRLTVTKDTSKNQAVLTMTNMDPVDTATYYCAHTGGAVITWFAYWGQGTLVTVSS VL: EIVMTQSPATLSVSPGERATLSCKASQSVGKNIAWYQQKPGQSPRLLIYYASNRYTGVPARFSGSGSGTEFTLTISSLQSEDFAVYYCQHIYNSPYPFGQGTKVEIK | 1.47e+06 M⁻¹ s⁻¹ |

Query: Provide only the value of recorded kon for h15C8.L1H2 (antibody, V domains shown, VH: L37V against h15C8.L1H1; FR/HVR pieces) VH: EVQLVQSGAEVKKPGASVKVSCKASGYTFTEHSIYWVRQAPGQRLEIIGRIDPKNGRTYFVDKFKNRATLTTDTSASTAYMELSSLRSEDTAVYFCARIDGFYFDFWGQGTLVTVSS VL: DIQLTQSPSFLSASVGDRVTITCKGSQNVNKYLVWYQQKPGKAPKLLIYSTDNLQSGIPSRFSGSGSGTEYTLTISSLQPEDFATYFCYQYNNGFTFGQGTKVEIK
Reply: 382000 M⁻¹ s⁻¹
